// reported pIC50 for each item listed
# Target or test system: KRAS Q61H (Homo sapiens (Human), UniProt P01116+P62937, Q61H)
# Sequence (P01116 other isoform, or with tags, fused parts or gaps Q61H): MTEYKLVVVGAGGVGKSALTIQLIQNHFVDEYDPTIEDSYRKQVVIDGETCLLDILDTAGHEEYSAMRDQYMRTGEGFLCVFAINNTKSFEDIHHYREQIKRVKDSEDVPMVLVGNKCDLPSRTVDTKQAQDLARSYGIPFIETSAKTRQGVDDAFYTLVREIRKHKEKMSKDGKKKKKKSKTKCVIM
# Sequence (P62937 whole entry): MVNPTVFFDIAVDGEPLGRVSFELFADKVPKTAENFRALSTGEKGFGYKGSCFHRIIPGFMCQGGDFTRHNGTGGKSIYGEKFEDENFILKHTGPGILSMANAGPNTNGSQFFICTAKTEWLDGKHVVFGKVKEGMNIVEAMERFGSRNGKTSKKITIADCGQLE
# Test description: Ras-Raf disruption/FRET/MOA assay (BRAF RBD, Cyclophilin A)
# Format: biochemical
pIC50: −log10 of the molar value.

Previously resolved entries follow.
{"Smiles record": "CCn1c(-c2cccnc2[C@H](C)OC)c2c3cc(ccc31)-c1csc(n1)C[C@H](NC(=O)[C@H](C(C)C)N(C)C(=O)N1CCC13COC3)C(=O)N1CCC[C@H](N1)C(=O)OCC(C)(C)C2", "pIC50": "7.00 to 8.00"}
{"Smiles record": "CCn1c(-c2cccnc2[C@H](C)OC)c2c3cc(ccc31)-c1csc(n1)C[C@H](NC(=O)[C@H](C(C)C)N(C)C(=O)N1CC(O)C1)C(=O)N1CCC[C@H](N1)C(=O)OCC(C)(C)C2", "pIC50": "7.00 to 8.00"}
{"Smiles record": "CCn1c(-c2cccnc2[C@H](C)OC)c2c3cc(ccc31)-c1csc(n1)C[C@H](NC(=O)[C@H](C(C)C)N(C)C(=O)N(C)C1(C)COC1)C(=O)N1CCC[C@H](N1)C(=O)OCC(C)(C)C2", "pIC50": "6.00 to 7.00"}
{"Smiles record": "CCn1c(-c2cccnc2[C@H](C)OC)c2c3cc(ccc31)-c1csc(n1)C[C@H](NC(=O)[C@H](C(C)C)N(C)C(=O)N1CC(C(=O)O)C1)C(=O)N1CCC[C@H](N1)C(=O)OCC(C)(C)C2", "pIC50": "6.00 to 7.00"}

### Prompt Which pIC50 is listed for CCn1c(-c2cc(N3CCN(C)CC3)cnc2[C@H](C)OC)c2c3cc(ccc31)-c1csc(n1)C[C@H](NC(=O)[C@H](C(C)C)N(C)C(=O)[C@@H]1OCC[C@@H]1c1ccncc1)C(=O)N1CCC[C@H](N1)C(=O)OCC(C)(C)C2 ?
### Response 7.00 to 8.00

### Prompt Which pIC50 is listed for CCn1c(-c2cccnc2[C@H](C)OC)c2c3cc(ccc31)-c1csc(n1)C[C@H](NC(=O)[C@H](C(C)C)N(C)C(=O)N1CC3(CC(N(C)C(C)C)C3)C1)C(=O)N1CCC[C@H](N1)C(=O)OCC(C)(C)C2 ?
### Response 7.00 to 8.00

====

# Target or test system: NRAS WT binding to BRAF RBD (Homo sapiens (Human), UniProt P01111+P62937)
# Sequence (P01111 whole entry, one chain of several): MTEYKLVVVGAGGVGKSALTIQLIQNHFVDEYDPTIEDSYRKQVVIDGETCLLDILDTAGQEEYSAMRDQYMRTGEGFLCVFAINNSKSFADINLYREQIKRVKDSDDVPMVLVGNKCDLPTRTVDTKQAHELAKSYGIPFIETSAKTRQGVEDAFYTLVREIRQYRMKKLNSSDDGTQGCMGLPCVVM
# Test description: Ras-Raf disruption/FRET/MOA assay, NRAS WT
pIC50: −log10 of the molar value.
Parameter measured: pIC50

{"Compound": "CC[C@H](COC1CN(C(=O)C#CC(C)(C)N(C)C)C1)C(=O)N[C@H]1Cc2nc(cs2)-c2ccc3c(c2)c(c(-c2cccnc2[C@H](C)OC)n3CC)CC(C)(C)COC(=O)[C@@H]2CCCN(N2)C1=O (atropisomer, axis not shown)", "Value observed": "6.00 to 7.00"}

### Prompt Item: CCn1c(-c2cccnc2[C@H](C)OC)c2c3cc(ccc31)-c1cccc(c1)C[C@H](NC(=O)[C@H](C(C)C)N1CC[C@@]3(CCN(C(=O)C#CC(C)(C)N4CCC4)C3)C1=O)C(=O)N1CCC[C@H](N1)C(=O)OCC(C)(C)C2 (atropisomer, axis not shown) Test system: NRAS WT binding to BRAF RBD (Homo sapiens (Human), UniProt P01111+P62937) Read-out: pIC50 Value: ?
### Response < 5.00

### Prompt Item: C=CC(=O)C1CC[C@H](C(=O)N(C)[C@H](C(=O)N[C@H]2Cc3cccc(c3)-c3ccc4c(c3)c(c(-c3cccnc3[C@H](C)OC)n4CC)CC(C)(C)COC(=O)[C@@H]3CCCN(N3)C2=O)C(C)(C)F)C1 (stereo partly shown) Test system: NRAS WT binding to BRAF RBD (Homo sapiens (Human), UniProt P01111+P62937) Read-out: pIC50 Value: ?
### Response 5.00 to 6.00

### Prompt Item: C=CC(=O)N(C)CCN1CCN(C(=O)N(C)[C@H](C(=O)N[C@H]2C[n+]3cccc(c3)-c3ccc4c(c3)c(c(-c3cccnc3[C@H](C)OC)n4CC)CC(C)(C)COC(=O)[C@@H]3CCCN(N3)C2=O)C(C)C)CC1 Test system: NRAS WT binding to BRAF RBD (Homo sapiens (Human), UniProt P01111+P62937) Read-out: pIC50 Value: ?
### Response 6.00 to 7.00
